- Protocol details: Acute oral toxicity (LD50)
- Condition set: mouse, in vivo; oral dose in mice
Counter-ions that a name gives are not always drawn.
Property label: LD50

# LD50 of CN1CCc2cc(Cl)c(OC(=O)N(C)C)cc2[C@H](c2ccccc2)C1 [hydrochloride] = > 300 mg/kg
